- target or system: UniProtKB P28223
- experiment: Displacement of [3H]ketanserin from human 5-HT2A receptor
Provide the reported pKi of each item.
Scale note: pKi = -log10(concentration in M).

Q: pKi lookup needed for CC(=O)c1ccc2c(c1)CC(CN1CCC(C(=O)c3ccc(F)cc3)CC1)CC2=O (stereo not given) , thanks.
Ans: 7.20

Q: For COc1ccccc1N1CCN(CCC2CCc3ccc([N+](=O)[O-])cc3C2O)CC1 (stereo not given) , what is its reported pKi?
Ans: 6.29

Q: For the compound shown here, CC(=O)c1ccc2c(c1)CC(CN1CCC(c3noc4cc(F)ccc34)CC1)CC2=O (stereo not given) , give the reported pKi.
Ans: 7.50

Q: Bench note: what pKi did Nc1ccc2c(c1)C(=O)C(CCN1CCC(c3noc4cc(F)ccc34)CC1)CC2 (stereo not given) show?
Ans: 8.30

Q: Given the entry Nc1ccc2c(c1)C(O)C(CCN1CCC(c3noc4cc(F)ccc34)CC1)CC2 (stereo not given) , report its measured pKi.
Ans: 8.18

Q: Given the compound O=[N+]([O-])c1ccc2c(c1)C(O)C(CCN1CCC(c3noc4cc(F)ccc34)CC1)CC2 (stereo not given) , what is its reported pKi?
Ans: 7.96

Q: Param item = O=C1c2cc([N+](=O)[O-])ccc2CCC1CCN1CCC(c2noc3cc(F)ccc23)CC1 (stereo not given) ; retrieve measured pKi.
Ans: 7.72

Q: Could you tell me which pKi is on file for COc1ccccc1N1CCN(CCC2CCc3ccc(N)cc3C2O)CC1 (stereo not given) ?
Ans: 6.80

Q: Name the recorded pKi for COc1ccccc1N1CCN(CCC2CCc3ccc(N)cc3C2=O)CC1 (stereo not given) .
Ans: 7.37

Q: Value lookup for pKi; key = O=C1CC(CN2CCC(c3noc4cc(F)ccc34)CC2)Cc2cc(-c3ccccc3)ccc21 (stereo not given)
Ans: 7.80

###

- target or system: 5-hydroxytryptamine receptor 2A (Homo sapiens)
- Sequence (P28223 whole entry): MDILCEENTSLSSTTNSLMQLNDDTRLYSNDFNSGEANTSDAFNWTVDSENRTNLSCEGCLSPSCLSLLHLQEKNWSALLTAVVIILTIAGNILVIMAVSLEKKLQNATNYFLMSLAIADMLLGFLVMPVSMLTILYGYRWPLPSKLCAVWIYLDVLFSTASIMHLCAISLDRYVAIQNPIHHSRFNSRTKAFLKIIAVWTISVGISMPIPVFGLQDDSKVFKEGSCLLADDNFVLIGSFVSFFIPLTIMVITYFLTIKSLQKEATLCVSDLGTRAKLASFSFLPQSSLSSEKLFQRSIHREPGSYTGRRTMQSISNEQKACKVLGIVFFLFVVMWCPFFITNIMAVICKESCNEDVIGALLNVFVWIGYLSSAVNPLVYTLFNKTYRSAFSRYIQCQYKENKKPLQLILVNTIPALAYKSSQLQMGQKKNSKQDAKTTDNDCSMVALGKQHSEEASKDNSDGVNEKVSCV
- experiment: Binding affinity for 5-HT2A receptor (unknown origin)
quantity measured: pKi
Please express pKi as -log10 of the molar concentration.

Q: Field: pKi (5-hydroxytryptamine receptor 2A (Homo sapiens)). Entry: O=C1CC(CN2CCC(c3noc4cc(F)ccc34)CC2)Cc2ccccc21 (stereo unspecified)
Ans: 8.56
